Catalogue of compounds with associated EC50
- Tested on: BJ
- test_details: BJ-TERT-LT-ST fibroblast viability loss – cell-based, RAS-independent, luminescence, dose response (AID 1935);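 also: BJ fibroblasts immortalized with TERT plus LT and ST oncogenes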
- Type: functional
- cond: Homo sapiens
The source made the active and inactive calls. Rule as the data show it: actives have a measured EC50 and inactives only a lower limit.

### Prompt Looking for the measured EC50 of `Cc1ccc(S(=O)(=O)CCc2nnc(NC(=O)CCl)s2)cc1C` , can you help?
### Response > 150 µM (not active)

### Prompt What would you report for `O=[N+]([O-])c1ccc(O)c2ncccc12` ?
### Response 16.7 µM (inconclusive)

### Prompt Moving on to `Cn1cnc([N+](=O)[O-])c1Sc1ncnc2[nH]cnc12`
### Response > 150 µM (not active)

### Prompt Can you check COCCOC(=O)c1[nH]c2c(c1C)C(=O)CC(c1ccccc1)C2 (stereo not given) next?
### Response 1.79 µM (active)

### Prompt Try the compound COc1ccc(C2C(C(=O)Nc3cc(OC)c(OC)c(OC)c3)c3ccccc3C(=O)N2C)cc1 (stereo not given)
### Response 2.56 µM (inconclusive)
